All values here come from ChEMBL document CHEMBL4428109.

Biological target: Peroxisome proliferator-activated receptor alpha (Homo sapiens, UniProt Q07869)
Sequence (Q07869 whole entry, the tested form may be a part): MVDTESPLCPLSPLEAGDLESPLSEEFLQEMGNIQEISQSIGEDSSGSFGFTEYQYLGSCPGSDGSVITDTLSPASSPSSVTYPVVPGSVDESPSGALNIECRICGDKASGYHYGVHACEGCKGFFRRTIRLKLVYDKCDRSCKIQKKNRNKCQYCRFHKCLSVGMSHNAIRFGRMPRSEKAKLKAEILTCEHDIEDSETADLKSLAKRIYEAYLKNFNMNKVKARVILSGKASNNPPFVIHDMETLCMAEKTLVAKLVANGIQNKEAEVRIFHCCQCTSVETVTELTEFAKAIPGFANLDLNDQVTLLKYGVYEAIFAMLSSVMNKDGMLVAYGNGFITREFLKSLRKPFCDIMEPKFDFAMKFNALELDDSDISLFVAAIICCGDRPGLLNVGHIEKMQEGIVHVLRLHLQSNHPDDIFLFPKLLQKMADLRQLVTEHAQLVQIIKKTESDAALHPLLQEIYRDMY
Assay: Agonist activity at N-terminal Gal4 fused human PPARalpha LBD transfected in HEK293 cells after 24 hrs by luciferase reporter gene assay
Endpoint: EC50 (nM)
// return numeric value only (unit: nM, not printed)

Any idea what its EC50 is? The compound is COC(=O)NC(C)c1nc(-c2ccc(Oc3ccc(OCc4ccccc4)cc3)cc2)no1 (stereo not given) 100

Also, CC(NC(=O)C(F)(F)F)c1nc(-c2ccc(Oc3ccc(OCc4ccccc4)cc3)cc2)no1 (stereo not given) please. 100

Now consider CC(=O)NC(C)c1nc(-c2ccc(Oc3ccc(OCc4ccccc4)cc3)cc2)no1 (stereo not given) and answer again. 33

Quick one: CCC(NC(C)=O)c1nc(-c2ccc(Oc3ccc(OCc4ccccc4)cc3)cc2)no1 (stereo not given) 130

Now the same for CC(=O)N[C@@H](C)c1nc(-c2ccc(Oc3ccc(OCc4ccccc4)cc3)cc2)no1 17
